# EC50 of hC3 cleavage listing for each entry below
target: plasma purified human complement protein C3 (human) (UniProt P01024); experiment: cell-based or functional assay
Sequence (P01024 23-667, chain 1 of 2): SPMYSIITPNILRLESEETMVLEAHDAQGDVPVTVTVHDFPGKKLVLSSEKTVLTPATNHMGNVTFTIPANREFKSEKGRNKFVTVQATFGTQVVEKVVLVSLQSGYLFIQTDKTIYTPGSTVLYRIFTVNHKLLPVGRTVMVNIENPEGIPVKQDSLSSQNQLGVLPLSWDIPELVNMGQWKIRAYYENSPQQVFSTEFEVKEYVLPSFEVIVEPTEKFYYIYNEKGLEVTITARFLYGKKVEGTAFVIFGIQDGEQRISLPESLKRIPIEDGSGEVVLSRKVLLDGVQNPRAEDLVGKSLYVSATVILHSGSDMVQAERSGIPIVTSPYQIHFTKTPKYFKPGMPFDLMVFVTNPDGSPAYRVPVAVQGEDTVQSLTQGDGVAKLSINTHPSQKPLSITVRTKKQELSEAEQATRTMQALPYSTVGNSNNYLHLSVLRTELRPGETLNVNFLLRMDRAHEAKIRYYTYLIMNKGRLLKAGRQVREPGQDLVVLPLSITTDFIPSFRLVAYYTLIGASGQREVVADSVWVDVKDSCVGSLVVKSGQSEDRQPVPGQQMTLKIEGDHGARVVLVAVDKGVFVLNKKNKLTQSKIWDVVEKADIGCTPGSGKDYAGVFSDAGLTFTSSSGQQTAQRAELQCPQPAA
Sequence (P01024 672-1663, chain 2 of 2): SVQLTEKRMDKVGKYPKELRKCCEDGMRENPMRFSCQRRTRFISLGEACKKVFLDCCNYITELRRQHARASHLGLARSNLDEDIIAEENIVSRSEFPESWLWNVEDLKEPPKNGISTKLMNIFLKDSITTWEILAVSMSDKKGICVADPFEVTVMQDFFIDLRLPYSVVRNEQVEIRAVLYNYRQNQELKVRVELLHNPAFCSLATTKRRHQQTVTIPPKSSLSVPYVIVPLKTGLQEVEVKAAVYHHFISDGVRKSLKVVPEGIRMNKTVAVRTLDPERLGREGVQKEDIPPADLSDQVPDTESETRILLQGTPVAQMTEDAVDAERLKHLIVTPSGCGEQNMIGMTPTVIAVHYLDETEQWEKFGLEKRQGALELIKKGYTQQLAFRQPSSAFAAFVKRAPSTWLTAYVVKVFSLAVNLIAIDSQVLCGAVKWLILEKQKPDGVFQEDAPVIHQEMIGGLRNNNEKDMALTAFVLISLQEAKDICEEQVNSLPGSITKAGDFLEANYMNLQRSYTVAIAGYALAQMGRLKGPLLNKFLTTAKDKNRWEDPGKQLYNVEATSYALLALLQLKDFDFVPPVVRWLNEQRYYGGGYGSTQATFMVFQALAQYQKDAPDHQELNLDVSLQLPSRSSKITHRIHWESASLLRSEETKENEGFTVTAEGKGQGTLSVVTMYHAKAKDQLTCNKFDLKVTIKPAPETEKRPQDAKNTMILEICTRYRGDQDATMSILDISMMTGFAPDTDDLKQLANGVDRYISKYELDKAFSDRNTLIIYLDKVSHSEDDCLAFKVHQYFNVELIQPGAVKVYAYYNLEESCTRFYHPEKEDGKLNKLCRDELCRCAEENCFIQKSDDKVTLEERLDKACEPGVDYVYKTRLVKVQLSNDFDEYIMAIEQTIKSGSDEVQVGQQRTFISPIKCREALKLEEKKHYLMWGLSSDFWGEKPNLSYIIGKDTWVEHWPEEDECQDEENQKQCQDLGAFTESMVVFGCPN
Write the answer as a number in nM, unit excluded.

Consider the following illustrative entries.
* MTSP-1 H40R/I41H/F97D/F99L/C122S/G151N/L153R (enzyme) VVGGTDADEGEWPWQVSLHALGQGRHCGASLISPNWLVSAAHCYIDDRGFRYSDPTQWTAFLGLHDQSQRSAPGVQERRLKRIISHPFFNDDTLDYDIALLELEKPAEYSSMVRPISLPDASHVFPAGKAIWVTGWGHTQYGGTNARILQKGEIRVINQTTCENLLPQQITPRMMCVGFLSGGVDSCQGDSGGPLSSVEADGRIFQAGVVSWGDGCAQRNKPGVYTRLPLFRDWIKENTGV | 59.9
* MTSP-1 H40R/I41H/F97D/ins97aE/T98G/F99L/C122S/Q175L/Q192G (enzyme) VVGGTDADEGEWPWQVSLHALGQGRHCGASLISPNWLVSAAHCYIDDRGFRYSDPTQWTAFLGLHDQSQRSAPGVQERRLKRIISHPFFNDDEGLDYDIALLELEKPAEYSSMVRPISLPDASHVFPAGKAIWVTGWGHTQYGGTGALILQKGEIRVINQTTCENLLPQLITPRMMCVGFLSGGVDSCGGDSGGPLSSVEADGRIFQAGVVSWGDGCAQRNKPGVYTRLPLFRDWIKENTGV | 39.7

From here, focus on the item given below.
The binder listed as MTSP-1 Q38H/I41A/D60bV/F60eR/Y60gW/ins97aE/F97T/T98G/F99L/C122S/Q175L/Q192D (enzyme) VVGGTDADEGEWPWQVSLHALGHGHACGASLISPNWLVSAAHCYIDVRGRRWSDPTQWTAFLGLHDQSQRSAPGVQERRLKRIISHPFFNDTEGLDYDIALLELEKPAEYSSMVRPISLPDASHVFPAGKAIWVTGWGHTQYGGTGALILQKGEIRVINQTTCENLLPQLITPRMMCVGFLSGGVDSCDGDSGGPLSSVEADGRIFQAGVVSWGDGCAQRNKPGVYTRLPLFRDWIKENTGV shows EC50 of hC3 cleavage equal to 2.37
